Reference for the values: patent US11591326B2

Catalogue of Cmax readings, one per entry.
- PROCEDURE_SUMMARY: Pharmacokinetic study in rat
- Assay type: in vivo, Male SD rats
- CONDITION_INFO: male, SD, plasma, 10 mg/kg; Rat PK (PO) 10 mpk
Record the result as number plus unit.

Completed entries (count: 2):
{"COMPOUND": "CC(=O)N1CCC(Nc2cc(C(=O)NC[C@H](O)CN3CCc4ccccc4C3)ncn2)CC1 [Compound C3, reference compound]", "OBSERVED_MEASUREMENT": "364 ng/mL"}
{"COMPOUND": "CC(=O)N1CCC(Nc2ccc3c(c2)C(=O)N(C[C@H](O)CN2CCc4ccccc4C2)CCO3)CC1 [Compound 52a]", "OBSERVED_MEASUREMENT": "563 ng/mL"}

Problem: Given CC(=O)N1CCC(Nc2ccc3c(c2)C(=O)N(C[C@H](O)CN2CCc4ccccc4C2)CC3)CC1 [Compound 24a] , state its recorded Cmax.
Solution: 798 ng/mL

###

- Tested on: SNU475
- PROCEDURE_SUMMARY: Liver cancer panel proliferation inhibition, SNU475
- Assay type: cell-based
- CONDITION_INFO: Homo sapiens, SNU-475, 192 h; SNU475, 8 days; read-out: IC50 (μM) 8 days
MEASURED_ATTRIBUTE: IC50 (µM)
# unit: µM | format: bare number

Here are 2 compounds together with their reported answers.
{"COMPOUND": "CC(=O)N1CCC(Nc2cc(C(=O)NC[C@H](O)CN3CCc4ccccc4C3)ncn2)CC1 [Compound C3, reference compound]", "IC50 / µM": 0.66}
{"COMPOUND": "CC(=O)N1CCC(Nc2ccc3c(c2)C(=O)N(C[C@H](O)CN2CCc4ccccc4C2)CCO3)CC1 [Compound 52a]", "IC50 / µM": 0.29}

As a next step, examine the compound that follows.
Problem: Recorded IC50 for CC(=O)N1CCC(Nc2ccc3c(c2)C(=O)N(C[C@H](O)CN2CCc4ccccc4C2)CC3)CC1 [Compound 24a] , please?
Solution: 0.21

###

Consider the following compounds and their measured IC50 readings.
- Test system: MDA-MB-453
- PROCEDURE_SUMMARY: Breast cancer panel proliferation inhibition, MDA-MB-453
- Assay type: cell-based
- CONDITION_INFO: Homo sapiens, 192 h; MDA-MB-453, 8 days; read-out: IC50 (μM) 8 days
Answer format: numeric, µM implied, no suffix.

Sample records with IC50:
{"COMPOUND": "CC(=O)N1CCC(Nc2cc(C(=O)NC[C@H](O)CN3CCc4ccccc4C3)ncn2)CC1 [Compound C3, reference compound]", "IC50, µM": 1.22}
{"COMPOUND": "CC(=O)N1CCC(Nc2ccc3c(c2)C(=O)N(C[C@H](O)CN2CCc4ccccc4C2)CCO3)CC1 [Compound 52a]", "IC50, µM": 0.14}

Next item in the queue.
Problem: So what's the measured IC50 for this one? CC(=O)N1CCC(Nc2ccc3c(c2)C(=O)N(C[C@H](O)CN2CCc4ccccc4C2)CC3)CC1 [Compound 24a]
Solution: 0.28

###

Catalogue of plasma clearance readings, one per entry.
- PROCEDURE_SUMMARY: Pharmacokinetic study in dog
- Format: in vivo, male beagle dogs
- CONDITION_INFO: male, beagle, 2 mg/kg, Dog PK (IV) 2 mpk, read-out: Clint (converted)
The figure you give is taken to be in mL/min/kg; do not add the unit.

{"COMPOUND": "CC(=O)N1CCC(Nc2ccc3c(c2)C(=O)N(C[C@H](O)CN2CCc4ccccc4C2)CC3)CC1 [Compound 24a]", "plasma clearance / mL/min/kg": 4.27}

Problem: Entry under review: CC(=O)N1CCC(Nc2ccc3c(c2)C(=O)N(C[C@H](O)CN2CCc4ccccc4C2)CCO3)CC1 [Compound 52a] . Reported plasma clearance?
Solution: 5.17

Problem: Param item = CC(=O)N1CCC(Nc2cc(C(=O)NC[C@H](O)CN3CCc4ccccc4C3)ncn2)CC1 [Compound C3, reference compound] ; retrieve measured plasma clearance.
Solution: 13.5

###

- PROCEDURE_SUMMARY: Pharmacokinetic study in rat
- Assay type: in vivo, Male SD rats
- CONDITION_INFO: male, SD, plasma, 10 mg/kg; Rat PK (PO) 10 mpk
MEASURED_ATTRIBUTE: Tmax (h)
Return type: number; implicit unit h.

Some compounds with known Tmax results, for comparison:
{"COMPOUND": "CC(=O)N1CCC(Nc2ccc3c(c2)C(=O)N(C[C@H](O)CN2CCc4ccccc4C2)CC3)CC1 [Compound 24a]", "MEASURED_ATTRIBUTE": "Tmax", "OBSERVED_MEASUREMENT": 1.17}
{"COMPOUND": "CC(=O)N1CCC(Nc2ccc3c(c2)C(=O)N(C[C@H](O)CN2CCc4ccccc4C2)CCO3)CC1 [Compound 52a]", "MEASURED_ATTRIBUTE": "Tmax", "OBSERVED_MEASUREMENT": 1.33}

Problem: Requested field: Tmax. Item: CC(=O)N1CCC(Nc2cc(C(=O)NC[C@H](O)CN3CCc4ccccc4C3)ncn2)CC1 [Compound C3, reference compound]
Solution: 1.67

###

Known IC50 of a selection of molecules
- Tested on: SNU398
- PROCEDURE_SUMMARY: Liver cancer panel proliferation inhibition, SNU398
- Format: cell-based
- CONDITION_INFO: Homo sapiens, SNU-398, 288 h; SNU398, 12 days; read-out: IC50 (μM) 12 days
Give a bare numeral; the unit µM is implied.

Before answering, review these 2 worked examples.
{"MOLECULE": "CC(=O)N1CCC(Nc2ccc3c(c2)C(=O)N(C[C@H](O)CN2CCc4ccccc4C2)CC3)CC1 [Compound 24a]", "IC50 [µM]": 0.25}
{"MOLECULE": "CC(=O)N1CCC(Nc2cc(C(=O)NC[C@H](O)CN3CCc4ccccc4C3)ncn2)CC1 [Compound C3, reference compound]", "IC50 [µM]": 0.41}

Problem: Dear colleague, I am looking for the recorded IC50 of the following molecule: CC(=O)N1CCC(Nc2ccc3c(c2)C(=O)N(C[C@H](O)CN2CCc4ccccc4C2)CCO3)CC1 [Compound 52a]
Solution: 0.12

###

- PROCEDURE_SUMMARY: Pharmacokinetic study in dog
- Format: in vivo, male beagle dogs
- CONDITION_INFO: male, beagle, plasma, 2 mg/kg; Dog PK (IV) 2 mpk; read-out: Vss
Each record here notes measured Vd.
Write the answer as a number in L/kg, unit excluded.

{"COMPOUND": "CC(=O)N1CCC(Nc2ccc3c(c2)C(=O)N(C[C@H](O)CN2CCc4ccccc4C2)CC3)CC1 [Compound 24a]", "OBSERVED_MEASUREMENT": 1.81}
{"COMPOUND": "CC(=O)N1CCC(Nc2cc(C(=O)NC[C@H](O)CN3CCc4ccccc4C3)ncn2)CC1 [Compound C3, reference compound]", "OBSERVED_MEASUREMENT": 1.32}

Shift focus to the following entry.
Problem: I have this compound here, CC(=O)N1CCC(Nc2ccc3c(c2)C(=O)N(C[C@H](O)CN2CCc4ccccc4C2)CCO3)CC1 [Compound 52a] , and I need its recorded Vd.
Solution: 1.56

###

- Tested on: MHCC-97H
- PROCEDURE_SUMMARY: Liver cancer panel proliferation inhibition, MHCC-97H
- Format: cell-based
- CONDITION_INFO: Homo sapiens, MHCC97H, 192 h, 8 days, read-out: IC50 (μM) 8 days
MEASURED_ATTRIBUTE: IC50 (µM)
Unit µM implied. Number only.

Reference set (2 entries):
{"COMPOUND": "CC(=O)N1CCC(Nc2cc(C(=O)NC[C@H](O)CN3CCc4ccccc4C3)ncn2)CC1 [Compound C3, reference compound]", "ENDPOINT_UNIT": "µM", "IC50": 0.089}
{"COMPOUND": "CC(=O)N1CCC(Nc2ccc3c(c2)C(=O)N(C[C@H](O)CN2CCc4ccccc4C2)CC3)CC1 [Compound 24a]", "ENDPOINT_UNIT": "µM", "IC50": 0.02}

Now for the compound whose IC50 we want.
Problem: Form: Entry = CC(=O)N1CCC(Nc2ccc3c(c2)C(=O)N(C[C@H](O)CN2CCc4ccccc4C2)CCO3)CC1 [Compound 52a] | System = MHCC-97H | IC50 = ____
Solution: 0.023

###

- PROCEDURE_SUMMARY: Pharmacokinetic study in dog
- Format: in vivo, male beagle dogs
- CONDITION_INFO: male, beagle, plasma, 10 mg/kg; Dog PK (PO) 10 mpk
MEASURED_ATTRIBUTE: Tmax (h)
Express your answer in h, writing the number without its unit.

{"COMPOUND": "CC(=O)N1CCC(Nc2ccc3c(c2)C(=O)N(C[C@H](O)CN2CCc4ccccc4C2)CC3)CC1 [Compound 24a]", "MEASURED_ATTRIBUTE": "Tmax", "OBSERVED_MEASUREMENT": 2}

Problem: Consider the compound CC(=O)N1CCC(Nc2ccc3c(c2)C(=O)N(C[C@H](O)CN2CCc4ccccc4C2)CCO3)CC1 [Compound 52a] and give its measured Tmax.
Solution: 1.33

Problem: # get_value(readout='Tmax', item= CC(=O)N1CCC(Nc2cc(C(=O)NC[C@H](O)CN3CCc4ccccc4C3)ncn2)CC1 [Compound C3, reference compound] )
Solution: 1.67
